target: Rhesus PDE2A3 (Macaca mulatta); assay: PDE2 fluorescence polarization (IMAP FP) inhibition assay, rhesus enzyme; format: biochemical, rhesus macaque; settings: LabB; read-out: rhPDE2 Ki (nM) LabB
Sequence (B3VTJ2 1-941): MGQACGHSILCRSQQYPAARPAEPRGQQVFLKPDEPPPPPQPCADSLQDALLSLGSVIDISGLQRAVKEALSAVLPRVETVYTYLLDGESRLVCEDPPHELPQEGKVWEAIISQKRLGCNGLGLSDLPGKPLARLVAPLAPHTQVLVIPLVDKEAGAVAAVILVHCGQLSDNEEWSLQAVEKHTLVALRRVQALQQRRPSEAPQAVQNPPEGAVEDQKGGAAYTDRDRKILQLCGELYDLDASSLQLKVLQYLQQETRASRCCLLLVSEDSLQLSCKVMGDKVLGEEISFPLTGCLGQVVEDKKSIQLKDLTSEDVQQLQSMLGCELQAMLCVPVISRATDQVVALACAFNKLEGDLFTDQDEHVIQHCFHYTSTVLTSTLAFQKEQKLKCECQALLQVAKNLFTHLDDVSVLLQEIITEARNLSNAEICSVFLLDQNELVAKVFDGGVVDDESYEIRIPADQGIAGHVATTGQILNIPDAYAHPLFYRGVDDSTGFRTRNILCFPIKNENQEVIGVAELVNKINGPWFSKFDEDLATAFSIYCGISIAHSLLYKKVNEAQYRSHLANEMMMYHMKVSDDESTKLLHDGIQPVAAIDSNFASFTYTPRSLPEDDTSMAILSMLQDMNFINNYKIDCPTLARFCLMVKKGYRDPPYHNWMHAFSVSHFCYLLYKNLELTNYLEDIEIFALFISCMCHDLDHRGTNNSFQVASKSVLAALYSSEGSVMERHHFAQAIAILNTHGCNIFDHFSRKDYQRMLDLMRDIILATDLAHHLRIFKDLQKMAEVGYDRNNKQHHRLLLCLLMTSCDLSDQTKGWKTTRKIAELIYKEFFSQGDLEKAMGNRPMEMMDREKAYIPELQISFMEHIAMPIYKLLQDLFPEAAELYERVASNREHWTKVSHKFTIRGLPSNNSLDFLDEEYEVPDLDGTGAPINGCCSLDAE
experimental-endpoint: Ki (nM)

compound | unit-tag | meas-value
Cc1nc(-c2cc(C(C)c3ccc(C(F)(F)F)cc3)ccn2)cc(=O)[nH]1 (centres unmarked) | nM | 868
Cc1nc(-c2cncc(C(C)c3ccc(C(F)(F)F)cc3)n2)cc(=O)[nH]1 (centres unmarked) | nM | 1660

A: Cc1nc(-c2nnc([C@H](C)c3ccc(C(F)(F)F)cc3)s2)cc(=O)[nH]1 (single isomer, unassigned) [Example 7]
B: Cc1nc(-c2nnc([C@H](C)c3ccc(C(F)(F)F)cc3)s2)cc(=O)[nH]1 (single isomer, unassigned) [Example 6]
C: Cc1nc(-c2cn(C(c3ccc(C(F)(F)F)cc3F)C(C)C)cn2)cc(=O)[nH]1 (centres unmarked)
D: Cc1nc(-c2ncc(C(C)c3ccc(C(F)(F)F)cc3)[nH]2)cc(=O)[nH]1 (centres unmarked)
E: Cc1nc(-c2nc(C(C)c3ccc(C(F)(F)F)cc3)no2)cc(=O)[nH]1 (centres unmarked)
# ascending order, key=Ki In your reply, arrange the labels in the requested order.
B, A, C, D, E
(B: 13 nM, A: 57 nM, C: 110 nM, D: 631 nM, E: 2410 nM)

A: Cc1nc(-c2nnc([C@H](C)c3ccc(C(F)(F)F)cc3)o2)cc(=O)[nH]1 (single isomer, unassigned) [Example 9]
B: Cc1nc(-c2cn([C@H](C)c3ccc(C(F)(F)F)cc3F)cn2)cc(=O)[nH]1 (single isomer, unassigned)
C: Cc1nc(-c2noc(C(C)c3ccc(C(F)(F)F)cc3)n2)cc(=O)[nH]1 (centres unmarked)
# ascending order, key=Ki In your reply, arrange the labels in the requested order.
B, A, C
(B: 46 nM, A: 159 nM, C: 1750 nM)
